Where do these numbers come from? They come from paper PMC8745314.

Test system: S. aureus NCTC 4163
Test: MIC broth microdilution, standard strain
Assay type: cell-based
Details: Staphylococcus aureus, NCTC4163; S. aureus NCTC 4163, standard strain, 19 h at 35 °C; read-out: minimal inhibitory concentration (MIC)
measure: MIC (µg/mL)
The figure you give is taken to be in µg/mL; do not add the unit.

get_value(item= CC(C)C12C=CC(C)(CC1)C1C(=O)N(Nc3nnnn3-c3ccccc3Cl)C(=O)C12 (stereo not shown) , readout=MIC) returns 32

get_value(item= CC(C)C12C=CC(C)(CC1)C1C(=O)N(Nc3nnnn3-c3ccccc3)C(=O)C12 (stereo not shown) , readout=MIC) returns 128

get_value(item= CC1=C(C)C2(C)CC1(C)C1C(=O)N(Nc3nnnn3-c3ccccc3Cl)C(=O)C12 (stereo not shown) , readout=MIC) returns 0.4

get_value(item= CC1=C(C)C2(C)CC1(C)C1C(=O)N(Nc3nnnn3-c3ccc([N+](=O)[O-])cc3)C(=O)C12 (stereo not shown) , readout=MIC) returns 16

----------
Target: S. aureus topoisomerase IV (Staphylococcus aureus, UniProt P0C1S7+P0C1U9)
Test: Topoisomerase IV decatenation assay
Type: biochemical
Conditions: decatenation of kinetoplast DNA, read-out: IC50 ± S.E.M. for Topoisomerase IV (converted)
measure: IC50 (µM)
The figure you give is taken to be in µM; do not add the unit.

get_value(item= CC1=C(C)C2(C)CC1(C)C1C(=O)N(Nc3nnnn3-c3ccccc3Cl)C(=O)C12 (stereo not shown) , readout=IC50) returns 141

get_value(item= COc1c(N2C[C@@H]3CCCN[C@@H]3C2)c(F)cc2c(=O)c(C(=O)O)cn(C3CC3)c12 [Moxifloxacin, reference compound] , readout=IC50) returns 2.24

get_value(item= CC1=C(C)C2(C)CC1(C)C1C(=O)N(Nc3nnnn3-c3ccccc3Br)C(=O)C12 (stereo not shown) , readout=IC50) returns 134

get_value(item= CC1=C(C)C2(C)CC1(C)C1C(=O)N(Nc3nnnn3-c3cccc(C(F)(F)F)c3)C(=O)C12 (stereo not shown) , readout=IC50) returns 142

----------
System: K. pneumoniae 510
Assay: MIC broth microdilution, clinical isolate
Format: cell-based
Conditions: Klebsiella pneumoniae; K. pneumoniae 510, clinical isolate, 19 h at 35 °C; read-out: minimal inhibitory concentration (MIC)
Could you please report measured MIC for the items listed next?

get_value(item= CC(C)C12C=CC(C)(CC1)C1C(=O)N(Nc3nnnn3-c3ccccc3Br)C(=O)C12 (stereo not shown) , readout=MIC) returns 16 µg/mL

get_value(item= CC1=C(C)C2(C)CC1(C)C1C(=O)N(Nc3nnnn3-c3ccccc3)C(=O)C12 (stereo not shown) , readout=MIC) returns 16 µg/mL

get_value(item= Cc1ccc(-n2nnnc2NN2C(=O)C3C(C2=O)C2(C(C)C)C=CC3(C)CC2)cc1 (stereo not shown) , readout=MIC) returns 32 µg/mL

get_value(item= CC1=C(C)C2(C)CC1(C)C1C(=O)N(Nc3nnnn3-c3cccc(C(F)(F)F)c3)C(=O)C12 (stereo not shown) , readout=MIC) returns 3.2 µg/mL

----------
Tested on: S. aureus ATCC 29213
Assay: MIC broth microdilution, standard strain
Format: cell-based
Conditions: Staphylococcus aureus, ATCC29213; S. aureus ATCC 29213, standard strain, 19 h at 35 °C; read-out: minimal inhibitory concentration (MIC)
Could you please report measured MIC for the items listed next?

I looked up CC1=C(C)C2(C)CC1(C)C1C(=O)N(Nc3nnnn3-c3ccccc3Br)C(=O)C12 (centres unmarked) and its MIC for S. aureus ATCC 29213 was 0.2 µg/mL

I looked up CC(C)C12C=CC(C)(CC1)C1C(=O)N(Nc3nnnn3-c3ccccc3Cl)C(=O)C12 (centres unmarked) and its MIC for S. aureus ATCC 29213 was 64 µg/mL

I looked up CC1=C(C)C2(C)CC1(C)C1C(=O)N(Nc3nnnn3-c3ccccc3Cl)C(=O)C12 (centres unmarked) and its MIC for S. aureus ATCC 29213 was 0.8 µg/mL

I looked up CC1=C(C)C2(C)CC1(C)C1C(=O)N(Nc3nnnn3-c3ccc(C)cc3)C(=O)C12 (centres unmarked) and its MIC for S. aureus ATCC 29213 was > 256 µg/mL

I looked up CC(C)C12C=CC(C)(CC1)C1C(=O)N(Nc3nnnn3-c3ccccc3Br)C(=O)C12 (centres unmarked) and its MIC for S. aureus ATCC 29213 was 64 µg/mL

I looked up CC1=C(C)C2(C)CC1(C)C1C(=O)N(Nc3nnnn3-c3ccccc3)C(=O)C12 (centres unmarked) and its MIC for S. aureus ATCC 29213 was 4 µg/mL

I looked up CC1=C(C)C2(C)CC1(C)C1C(=O)N(Nc3nnnn3-c3cccc(C(F)(F)F)c3)C(=O)C12 (centres unmarked) and its MIC for S. aureus ATCC 29213 was 0.2 µg/mL

I looked up Cc1ccc(-n2nnnc2NN2C(=O)C3C(C2=O)C2(C(C)C)C=CC3(C)CC2)cc1 (centres unmarked) and its MIC for S. aureus ATCC 29213 was 8 µg/mL

----------
Tested on: S. epidermidis 4243
Test: MIC broth microdilution, clinical isolate
Type: cell-based
Conditions: Staphylococcus epidermidis; S. epidermidis 4243, clinical isolate, 19 h at 35 °C; read-out: minimal inhibitory concentration (MIC)
Could you please report measured MIC for the items listed next?
The figure you give is taken to be in µg/mL; do not add the unit.

get_value(item= CC1=C(C)C2(C)CC1(C)C1C(=O)N(Nc3nnnn3-c3ccccc3)C(=O)C12 (centres unmarked) , readout=MIC) returns 4

get_value(item= Cc1ccc(-n2nnnc2NN2C(=O)C3C(C2=O)C2(C(C)C)C=CC3(C)CC2)cc1 (centres unmarked) , readout=MIC) returns 8

get_value(item= CC(C)C12C=CC(C)(CC1)C1C(=O)N(Nc3nnnn3-c3ccc([N+](=O)[O-])cc3)C(=O)C12 (centres unmarked) , readout=MIC) returns 16

get_value(item= CC1=C(C)C2(C)CC1(C)C1C(=O)N(Nc3nnnn3-c3ccccc3Br)C(=O)C12 (centres unmarked) , readout=MIC) returns 0.8

get_value(item= CC1=C(C)C2(C)CC1(C)C1C(=O)N(Nc3nnnn3-c3ccccc3Cl)C(=O)C12 (centres unmarked) , readout=MIC) returns 0.8

get_value(item= CC1=C(C)C2(C)CC1(C)C1C(=O)N(Nc3nnnn3-c3cccc(C(F)(F)F)c3)C(=O)C12 (centres unmarked) , readout=MIC) returns 0.8

get_value(item= CC(C)C12C=CC(C)(CC1)C1C(=O)N(Nc3nnnn3-c3ccccc3Br)C(=O)C12 (centres unmarked) , readout=MIC) returns 2

get_value(item= CC1=C(C)C2(C)CC1(C)C1C(=O)N(Nc3nnnn3-c3ccc([N+](=O)[O-])cc3)C(=O)C12 (centres unmarked) , readout=MIC) returns 32

----------
Could you please report measured MIC for the items listed next?
Test system: S. aureus ATCC 6538
Assay: MIC broth microdilution, standard strain
Type: cell-based
Conditions: Staphylococcus aureus, ATCC6538; S. aureus ATCC 6538, standard strain, 19 h at 35 °C; read-out: minimal inhibitory concentration (MIC)

get_value(item= CC1=C(C)C2(C)CC1(C)C1C(=O)N(Nc3nnnn3-c3ccc(C)cc3)C(=O)C12 (centres unmarked) [Compound 5] , readout=MIC) returns > 256 µg/mL

get_value(item= CC1=C(C)C2(C)CC1(C)C1C(=O)N(Nc3nnnn3-c3ccc([N+](=O)[O-])cc3)C(=O)C12 (centres unmarked) [Compound 4] , readout=MIC) returns 32 µg/mL

get_value(item= CC(C)C12C=CC(C)(CC1)C1C(=O)N(Nc3nnnn3-c3ccc([N+](=O)[O-])cc3)C(=O)C12 (centres unmarked) [Compound 8] , readout=MIC) returns 8 µg/mL

get_value(item= CC1=C(C)C2(C)CC1(C)C1C(=O)N(Nc3nnnn3-c3cccc(C(F)(F)F)c3)C(=O)C12 (centres unmarked) [Compound 1] , readout=MIC) returns 0.2 µg/mL

get_value(item= CC(C)C12C=CC(C)(CC1)C1C(=O)N(Nc3nnnn3-c3ccccc3)C(=O)C12 (centres unmarked) [Compound 11] , readout=MIC) returns 128 µg/mL
